Listing of pIC50 toward human eIF4E protein (Homo sapiens), each taken from a published source.
pIC50: −log10 of the molar value.

Examples from the recorded data:
> print(dat)
                                   compound     obs.value
1  Cc1cc(C#N)ccc1-c1ccc(-c2nc(-c3ccc(Cl)c(Cl)c3)cs2)cc1C(=O)O          5.89
2  COCCOc1ccc(-c2nc(Nc3ncc(-c4ccsc4)cc3C(=O)O)sc2CC(C)C)cc1F  6.00 to 6.30
3  CCCC(CNc1nc(-c2ccc(-c3cnco3)cc2)c(-c2cccc3[nH]ccc23)s1)C(=O)O (stereo not shown)        < 4.60

COCCOc1ccc(-c2nc(Nc3ncc(-c4cccs4)cc3C(=O)O)sc2CC(C)C)cc1C(F)(F)F tested on human eIF4E protein (Homo sapiens) gave pIC50: ≥ 6.30
